As shown below, each of these molecules has a reported DC50 value.
- experimental target: IRAK4 (Homo sapiens, UniProt Q9NWZ3)
- assay method text: hPBMC IRAK4 degradation flow assay (monocytes)
- Type: cell-based
- Parameters: endogenous in cells; host or cells: human PBMCs (monocytes, CD14 positive gate)
- experimental conditions: CD14 positive monocytes, 20 h, read-out: hPBMC monocyte DC50 at 20 h
measure: DC50

>>> result("CC(C)(O)c1cc2nn([C@H]3CC[C@H](CNCCCCCCCCCc4ccc5c(-c6cccc(C(=O)Nc7ccc(=O)n(CC(=O)O)c7)c6)cncc5c4)CC3)cc2cc1NC(=O)c1cccc(C(F)(F)F)n1 [Compound I-53]")
"> 10 µM"
>>> result("CCOC(=O)Cn1cc(NC(=O)c2cccc(-c3cncc(CCCCCCCCCNC[C@H]4CC[C@H](n5cc(NC(=O)c6cnn7ccc(N8C[C@H]9C[C@@H]8CO9)nc67)c(C(F)F)n5)CC4)c3)c2)ccc1=O [Compound I-89]")
"1 to 10 µM"
>>> result("O=C(O)Cn1cc(NC(=O)[C@H]2CCCN(c3cncc(NCCNC[C@H]4CC[C@H](n5cc(NC(=O)c6cnn7ccc(N8C[C@H]9C[C@@H]8CO9)nc67)c(C(F)F)n5)CC4)c3)C2)ccc1=O [Compound I-8]")
"> 10 µM"
>>> result("COc1cc2nn([C@H]3CC[C@H](CN4CCC(c5cncc(N6CCC[C@H](C(=O)Nc7ccc(=O)n(CC(=O)O)c7)C6)c5)CC4)CC3)cc2cc1NC(=O)c1cccc(C(F)(F)F)n1 [Compound I-10]")
"> 10 µM"
>>> result("O=C(O)Cn1cc(NC(=O)[C@H]2CCCN(c3cncc(C#CCOC4CCN(C[C@H]5CC[C@H](n6cc(NC(=O)c7cnn8ccc(N9C[C@H]%10C[C@@H]9CO%10)nc78)c(C(F)F)n6)CC5)CC4)c3)C2)ccc1=O [Compound I-11]")
"> 10 µM"

====

- experimental target: IRAK4 (Homo sapiens, UniProt Q9NWZ3)
- Sequence (Q9NWZ3 1-460): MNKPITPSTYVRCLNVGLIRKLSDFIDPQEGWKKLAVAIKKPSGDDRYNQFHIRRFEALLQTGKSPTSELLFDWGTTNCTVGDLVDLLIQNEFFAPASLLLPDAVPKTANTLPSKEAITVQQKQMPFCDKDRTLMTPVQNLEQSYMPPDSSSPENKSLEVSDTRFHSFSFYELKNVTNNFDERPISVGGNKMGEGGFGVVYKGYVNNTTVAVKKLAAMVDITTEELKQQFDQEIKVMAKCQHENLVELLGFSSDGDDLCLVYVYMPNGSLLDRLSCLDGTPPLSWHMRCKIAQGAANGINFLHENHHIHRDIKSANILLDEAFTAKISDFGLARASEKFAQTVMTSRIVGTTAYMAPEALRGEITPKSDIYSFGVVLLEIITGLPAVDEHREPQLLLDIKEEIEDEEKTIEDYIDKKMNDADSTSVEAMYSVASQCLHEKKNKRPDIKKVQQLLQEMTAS
- assay method text: hPBMC IRAK4 degradation flow assay (monocytes)
- Type: cell-based
- Design: endogenous in cells; host or cells: human PBMCs (monocytes, CD14 positive gate)
- experimental conditions: CD14 positive monocytes, 20 h, read-out: hPBMC monocyte DC50 at 20 h
measure: DC50

>>> result("CCOC(=O)Cn1cc(NC(=O)[C@H]2CCCN(c3cncc(OCCOCCOCCOCCOCCNC[C@H]4CC[C@H](n5cc6cc(NC(=O)c7cccc(C(F)(F)F)c7)c(OC)cc6n5)CC4)c3)C2)ccc1=O [Compound I-43]")
"1 to 10 µM"
>>> result("CC(C)(O)c1cc2nn([C@H]3CC[C@H](CNCCCCCCCCCc4cncc(-c5cccc(C(=O)Nc6ccc(=O)n(CC(=O)O)c6)c5)c4)CC3)cc2cc1NC(=O)c1cccc(C(F)(F)F)n1 [Compound I-84]")
"1 to 10 µM"
>>> result("CCOC(=O)Cn1cc(NC(=O)[C@H]2CCCN(c3cncc(OCCOCCOCCOCCOCCNC[C@H]4CC[C@H](n5cc(NC(=O)c6cnn7ccc(N8C[C@H]9C[C@@H]8CO9)nc67)c(C(F)F)n5)CC4)c3)C2)ccc1=O [Compound I-47]")
"> 10 µM"
>>> result("CC(C)(O)c1cc2nn([C@H]3CC[C@H](CNCCCn4ccc5c(C(=O)Nc6ccc(=O)n(CC(=O)O)c6)cccc54)CC3)cc2cc1NC(=O)c1cccc(C(F)(F)F)n1 [Compound I-78]")
"> 10 µM"
>>> result("COc1cc2nn([C@H]3CC[C@H](CN(C)CC4CCN(c5cncc(N6CCCC(C(=O)Nc7ccc(=O)n(CC(=O)O)c7)C6)c5)CC4)CC3)cc2cc1NC(=O)c1cccc(C(F)(F)F)n1 (stereo partly drawn) [Compound I-19]")
"> 10 µM"
>>> result("COc1cc(-c2ccc(F)c(CCCCCCCCCNC[C@H]3CC[C@H](n4cc5cc(NC(=O)c6cccc(C(F)(F)F)n6)c(C(C)(C)O)cc5n4)CC3)c2)ccc1C(=O)Nc1ccc(=O)n(CC(=O)O)c1 [Compound I-63]")
"> 10 µM"
>>> result("CCOC(=O)Cn1cc(NC(=O)c2cccc3c2ccn3CCCNC[C@H]2CC[C@H](n3cc(NC(=O)c4cnn5ccc(N6C[C@H]7C[C@@H]6CO7)nc45)c(C(F)F)n3)CC2)ccc1=O [Compound I-81]")
"> 10 µM"
>>> result("CCOC(=O)Cn1cc(NC(=O)[C@H]2CCCN(c3cncc(C#CCOC4CCN(C[C@H]5CC[C@H](n6cc(NC(=O)c7cnn8ccc(N9C[C@H]%10C[C@@H]9CO%10)nc78)c(C(F)F)n6)CC5)CC4)c3)C2)ccc1=O [Compound I-23]")
"1 to 10 µM"
>>> result("O=C(O)Cn1cc(NC(=O)[C@H]2CCCN(c3cncc(OCCCCNC[C@H]4CC[C@H](n5cc(NC(=O)c6cnn7ccc(N8C[C@H]9C[C@@H]8CO9)nc67)c(C(F)F)n5)CC4)c3)C2)ccc1=O [Compound I-46]")
"> 10 µM"
>>> result("COc1cc2nn([C@H]3CC[C@H](CNCCNc4cncc(N5CCC[C@H](C(=O)Nc6ccc(=O)n(CC(=O)O)c6)C5)c4)CC3)cc2cc1NC(=O)c1cccc(C(F)(F)F)n1 [Compound I-7]")
"> 10 µM"
>>> result("CCOC(=O)Cn1cc(NC(=O)c2ccc(-c3ccc(F)c(CCCCCCCCCNC[C@H]4CC[C@H](n5cc6cc(NC(=O)c7cccc(C(F)(F)F)n7)c(C(C)(C)O)cc6n5)CC4)c3)cc2OC)ccc1=O [Compound I-64]")
"> 10 µM"
>>> result("CCOC(=O)Cn1cc(NC(=O)c2cccc(-c3cncc(CCCCCCNC[C@H]4CC[C@H](n5cc(NC(=O)c6cnn7ccc(N8C[C@H]9C[C@@H]8CO9)nc67)c(C(F)F)n5)CC4)c3)c2)ccc1=O [Compound I-99]")
"> 10 µM"
>>> result("O=C(O)Cn1cc(NC(=O)[C@H]2CCCN(c3cncc(NCCOCCOCCOCCOCCNC[C@H]4CC[C@H](n5cc(NC(=O)c6cnn7ccc(N8C[C@H]9C[C@@H]8CO9)nc67)c(C(F)F)n5)CC4)c3)C2)ccc1=O [Compound I-4]")
"> 10 µM"
>>> result("CCOC(=O)Cn1cc(NC(=O)c2cccc3c2ccn3CCCCCCNC[C@H]2CC[C@H](n3cc(NC(=O)c4cnn5ccc(N6C[C@H]7C[C@@H]6CO7)nc45)c(C(F)F)n3)CC2)ccc1=O [Compound I-61]")
"1 to 10 µM"
>>> result("COc1cc2nn([C@H]3CC[C@H](CN4CCC(OCC#Cc5cncc(N6CCC[C@H](C(=O)Nc7ccc(=O)n(CC(=O)O)c7)C6)c5)CC4)CC3)cc2cc1NC(=O)c1cccc(C(F)(F)F)n1 [Compound I-9]")
"0.1 to 1 µM"
>>> result("CCOC(=O)Cn1cc(NC(=O)c2cccc3c2ccn3CCCCCCCCCNC[C@H]2CC[C@H](n3cc4cc(NC(=O)c5cccc(C(F)(F)F)n5)c(C(C)(C)O)cc4n3)CC2)ccc1=O [Compound I-69]")
"0.1 to 1 µM"
>>> result("O=C(O)Cn1cc(NC(=O)c2cccc3c2ccn3CCCCCCNC[C@H]2CC[C@H](n3cc(NC(=O)c4cnn5ccc(N6C[C@H]7C[C@@H]6CO7)nc45)c(C(F)F)n3)CC2)ccc1=O [Compound I-59]")
"> 10 µM"
>>> result("COc1cc2nn([C@H]3CC[C@H](CNCCCCc4cncc(N5CCC[C@H](C(=O)Nc6ccc(=O)n(CC(=O)O)c6)C5)c4)CC3)cc2cc1NC(=O)c1cccc(C(F)(F)F)n1 [Compound I-25]")
"> 10 µM"
